Experiment: Dynamics in vivo (concentration in plasma over time) of KNI-272 and Ritonavir in dogs
Conditions: dog, plasma, iv, 15 mg/kg, KNI-272 15 mg/kg i.v., independent administration, dogs
assay metric: AUC (ng·h/mL)
Only the number, expressed in ng·h/mL, is required.

Q) Given `CSC[C@H](NC(=O)COc1cccc2cnccc12)C(=O)N[C@@H](Cc1ccccc1)[C@H](O)C(=O)N1CSC[C@H]1C(=O)NC(C)(C)C` , respond with its AUC.
A) 10100

----------
Experiment: Change of concentration in plasma over time after oral administration to rats (KNI-272 with Indinavir or Nelfinavir)
Details: rat, plasma, po, 40 mg/kg, AUC value of KNI-272, KNI-272 40 mg/kg p.o. individually
assay metric: AUC
Form field: result (number plus unit)

Q) Give AUC for `CSC[C@H](NC(=O)COc1cccc2cnccc12)C(=O)N[C@@H](Cc1ccccc1)[C@H](O)C(=O)N1CSC[C@H]1C(=O)NC(C)(C)C`
A) 4900 ng·h/mL
